- Read-out: growth arrest and DNA damage 45 (GADD45B), GADD45B (gene 4616)
- ASSAY_TEXT: LTEA_HepaRG_GADD45B: Life Technologies and Expression Analysis (LTEA) Assay for growth arrest and DNA damage 45 (GADD45B) using HepaRG (AID 2283461)
- SETUP_CONDITIONS: mRNA level, 48 h; actives raise or lower the signal
Active and inactive are the calls of the source. How the source made its calls: active means hit-call score of the fitted dose curve at least 0.9, where 1 is the maximum; inactive means score below 0.9.
Outcome codes: TRUE (active), FALSE (inactive)

MOLECULE	CATEGORY
CCC(C)(C)C1CCC(O)CC1 (centres undefined)	FALSE
CCC(=C(c1ccc(O)cc1)c1ccc(OCCN(C)C)cc1)c1ccccc1	FALSE
Cc1cc(CCN2CCN(c3nsc4ccccc34)CC2)cc2c1NC(=O)CC2(C)C	FALSE
CCCCCCCCCCCCN1CCCC1=O	FALSE
c1ccc2c(c1)ccc1ccccc12	FALSE
CCCCCCCCC(=O)O	FALSE
CC[C@H](c1ccc(O)cc1)[C@@H](CC)c1ccc(O)cc1	TRUE
CC(O)CO (centres undefined)	FALSE
CCCCC(CC)COC(=O)CCCCC(=O)OCc1ccccc1 (centres undefined)	FALSE
C=C(C)C(=O)OCCC(F)(F)C(F)(F)C(F)(F)C(F)(F)C(F)(F)C(F)(F)F	FALSE
CN1CCN(c2ccccc2/C=C2\SCCN(c3ccc(Cl)c(Cl)c3)C2=O)CC1	TRUE
CCCCOCCO	FALSE
CCCCCCC(=O)O	FALSE
CN(C)C=O	FALSE

###

- Read-out: Monokine induced gamma interferon (MIG), CXCL9 (gene 4283)
- ASSAY_TEXT: BSK_BE3C_MIG: BioMAP Diversity Plus: BE3C Assay for Monokine induced gamma interferon (MIG) Biomarker Activity (AID 2283035);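 on Outcome: MIG protein measured by ELISA in BE3C cultures after 24 h of dosing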
- SETUP_CONDITIONS: primary human bronchial epithelial cells; actives raise or lower the signal
Active and inactive are the calls of the source. Rule for the calls: active = hit-call score of the fitted dose curve at least 0.9, where 1 is the maximum; inactive = score below 0.9.
Outcome codes: active, inactive

MOLECULE	CATEGORY
Oc1cc2ccccc2c2ccccc12	active
Cc1cc(CCN2CCN(c3nsc4ccccc34)CC2)cc2c1NC(=O)CC2(C)C	active
FC(F)(I)C(F)(F)C(F)(F)C(F)(F)C(F)(F)C(F)(F)I	active
CCC(=C(c1ccc(O)cc1)c1ccc(OCCN(C)C)cc1)c1ccccc1	active
Nc1cccc2c(N)cccc12	inactive
CCC(C)(C)C1CCC(O)CC1 (configuration not stated)	inactive
CC#C[C@]1(O)CC[C@H]2[C@@H]3CCC4=CC(=O)CCC4=C3[C@@H](c3ccc(N(C)C)cc3)C[C@@]21C	inactive
O=C(O)Cc1cc(I)c(Oc2cc(I)c(O)c(I)c2)c(I)c1	active
O=[N+]([O-])c1ccc(O)cc1	inactive
CCCCCCCC(=O)O	inactive
COCC(C)O (configuration not stated)	inactive
CC(C)(C)c1cccc(C(C)(C)C)c1O	inactive
CCc1ccc(CCOc2ccc(CC3SC(=O)NC3=O)cc2)nc1 (configuration not stated)	inactive
O=C(OCCOCCOC(=O)c1ccccc1)c1ccccc1	inactive
CC(C)(C)c1cc(C(C)(C)C)c(O)c(C(C)(C)C)c1	inactive
CN1CCC[C@H]1c1cccnc1	inactive
c1ccc2cc3c(ccc4ccccc43)cc2c1	inactive
CCCCC(CC)COC(=O)CCCCC(=O)OCC(CC)CCCC (configuration not stated)	inactive
O=c1c(-c2ccc(O)cc2)coc2cc(O)ccc12	inactive
CCCCCCCCCCCCN1CCCC1=O	active
CC[C@H](C)[C@@H](C(=O)O)n1sc2ccccc2c1=O	inactive
CN(C)C=O	inactive

###

- Read-out: Cytochrome P450 (CYP24A1), CYP24A1 (gene 1591)
- ASSAY_TEXT: LTEA_HepaRG_CYP24A1: Life Technologies and Expression Analysis (LTEA) Assay for Cytochrome P450 (CYP24A1) using HepaRG (AID 2283478)
- SETUP_CONDITIONS: mRNA level, 48 h; actives raise or lower the signal
The source made the active and inactive calls. How the source made its calls: active means hit-call score of the fitted dose curve at least 0.9, where 1 is the maximum; inactive means score below 0.9.
Outcome codes: True for active, False for inactive

MOLECULE	CATEGORY
CCCCC(CC)COC(=O)CCCCC(=O)OCC(CC)CCCC (stereo not drawn)	False
CC1=C(/C=C/C(C)=C/C=C/C(C)=C/C(=O)O)C(C)(C)CCC1	True
CC(O)CO (stereo not drawn)	False
O=C(O)Cc1cc(I)c(Oc2cc(I)c(O)c(I)c2)c(I)c1	False
COCC(C)OCC(C)O (stereo not drawn)	False
CCC(C)(C)C1CCC(O)CC1 (stereo not drawn)	False
Oc1cccc(O)c1	False
Cc1cc(C)c(O)c(C)c1	False
NC(=O)N(O)[C@@H]1C=C[C@H](Oc2cccc(Oc3ccc(F)cc3)c2)C1	False
CCC(=C(c1ccc(O)cc1)c1ccc(OCCN(C)C)cc1)c1ccccc1	False
CCCCCCCCCCCCc1ccccc1S(=O)(=O)O	False
CCCCCCCCCCCCN1CCCC1=O	False
Cc1oc(-c2ccccc2)nc1CCOc1ccc(C[C@H](Nc2ccccc2C(=O)c2ccccc2)C(=O)O)cc1	False

###

- ASSAY_TEXT: Tanguay_ZF_120hpf_ActivityScore_legacy: (Legacy) Oregon State University Tanguay Lab 120 Hour Post-fertilization zebrafish Assay Score for Activity (AID 2283742)
Activity calls are given as the source filed them. The calls were made as follows: active = hit-call score of the fitted dose curve at least 0.9, where 1 is the maximum; inconclusive = response in the unintended direction; inactive = score below 0.9.
Outcome codes: active, inactive

COMPOUND	CATEGORY
CCCCCCCCCCCCN1CCCC1=O	active
CC[C@H](c1ccc(O)cc1)[C@@H](CC)c1ccc(O)cc1	inactive
c1ccc2cc3c(ccc4ccccc43)cc2c1	inactive
CCCCCCCCOC(=O)CCCCCCCCC(=O)OCCCCCCCC	inactive
Oc1cccc(O)c1	inactive
OCCC(F)(F)C(F)(F)C(F)(F)C(F)(F)C(F)(F)C(F)(F)C(F)(F)C(F)(F)F	inactive
c1ccc2c(c1)Cc1ccccc1-2	inactive
CCCCCCCCC(=O)O	inactive
CN1CCC[C@H]1c1cccnc1	inactive
N#C[C@@H]1CC(F)(F)CN1C(=O)CNC1CC2CCC(C1)N2c1ncccn1 (stereo partly drawn)	inactive
O=C(OCCOCCOC(=O)c1ccccc1)c1ccccc1	inactive
CCCCCCCC(=O)O	inactive
CCN(CC)CCNc1ccc(CNC=O)c2sc3ccc(OC)cc3c(=O)c12	inactive

###

- TARGET_ENTITY: chimpanzee Androgen Receptor (AR), AR (gene 747460)
- ASSAY_TEXT: NVS_NR_cAR: NovaScreen (NVS) Nuclear Receptor Binding Assay for chimpanzee Androgen Receptor (AR) (AID 2283346);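 further: radioligand displacement from AR measured by scintillation counting in a cell-free assay; a loss of bound radioligand signal versus DMSO counts as binding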
Inconclusive results are not listed. Activity calls are given as the source filed them. Rule for the calls: active = hit-call score of the fitted dose curve at least 0.9, where 1 is the maximum; inconclusive = response in the unintended direction; inactive = score below 0.9.
Outcome codes: 1 (yes) (active), 0 (no) (inactive)

STRUCTURE_SMILES	CATEGORY
CCCOC(=O)c1ccc(O)cc1	0 (no)
O=C(O)c1ccccc1C(c1ccc(O)cc1)c1ccc(O)cc1	0 (no)
Cc1oc(-c2ccccc2)nc1CCOc1ccc(C[C@H](Nc2ccccc2C(=O)c2ccccc2)C(=O)O)cc1	0 (no)
O=C1OC2(c3ccccc31)c1cc(Br)c(O)c(Br)c1Oc1c2cc(Br)c(O)c1Br	1 (yes)
CCN(CC)CCNc1ccc(CNC=O)c2sc3ccc(OC)cc3c(=O)c12	0 (no)
C[C@@H]1C[C@H]2[C@@H]3CCC4=CC(=O)C=C[C@]4(C)[C@@]3(F)[C@@H](O)C[C@]2(C)[C@@]1(O)C(=O)COP(=O)(O)O	1 (yes)

###

- ASSAY_TEXT: APR_HepG2_P-H2AX_24hr: Apredica 24-hour HepG2 Assay for H2AX Phosphorylation (AID 2282920)
- SETUP_CONDITIONS: high-content imaging, actives raise or lower the signal
Active and inactive are the calls of the source. Rule for the calls: active = hit-call score of the fitted dose curve at least 0.9, where 1 is the maximum; inactive = score below 0.9.
Outcome codes: active, inactive

MOLECULE	CATEGORY
Cc1oc(-c2ccccc2)nc1CCOc1ccc(C[C@H](Nc2ccccc2C(=O)c2ccccc2)C(=O)O)cc1	active
CCCCOCCO	inactive
CC(C)(C)c1cc(C(C)(C)C)c(O)c(C(C)(C)C)c1	inactive
OC1CCC(C2CCCCC2)CC1 (configuration not stated)	inactive
Oc1cccc(O)c1	inactive
OCCC(F)(F)C(F)(F)C(F)(F)C(F)(F)C(F)(F)C(F)(F)F	inactive
COc1cc(CCC(=O)CC(=O)CCc2ccc(O)c(OC)c2)ccc1O	inactive
CCCOc1sc(C(=O)N2CCC(c3cc(CN)ccc3F)CC2)c(C)c1Br	active
ClC1=C(Cl)C(Cl)(Cl)C(Cl)=C1Cl	inactive
CCc1ccc(CCOc2ccc(CC3SC(=O)NC3=O)cc2)nc1 (configuration not stated)	inactive
CCCCCCCCCCCCN1CCCC1=O	active
CCc1nn(C2CCCCC2)c2cc(C3(C#N)CCC(C(=O)O)CC3)ccc12 (configuration not stated)	inactive

###

- Read-out: Cytochrome P450 3A4 (Homo sapiens)
- ASSAY_TEXT: LTEA_HepaRG_CYP3A4: Life Technologies and Expression Analysis (LTEA) Assay for CYP3A4 using HepaRG (AID 2283487)
- SETUP_CONDITIONS: mRNA level, 48 h; actives raise or lower the signal
The source made the active and inactive calls. Rule for the calls: active = hit-call score of the fitted dose curve at least 0.9, where 1 is the maximum; inactive = score below 0.9.

COMPOUND	AC50
COC(=O)CCCCC(=O)OC	inactive
CCC(=C(c1ccc(O)cc1)c1ccc(OCCN(C)C)cc1)c1ccccc1	2.51 µM (active)
CCCCCCCCCCCCCCCS(=O)(=O)Oc1ccccc1	9.56 µM (active)
CC(=O)CC(C)(C)O	inactive
O=C(O)c1ccccc1C(c1ccc(O)cc1)c1ccc(O)cc1	inactive
Cc1oc(-c2ccccc2)nc1CCOc1ccc(C[C@H](Nc2ccccc2C(=O)c2ccccc2)C(=O)O)cc1	12.7 µM (active)
CCCCC(CC)COC(=O)CCCCC(=O)OCc1ccccc1 (configuration not stated)	inactive
O=c1c(-c2ccc(O)cc2)coc2cc(O)ccc12	inactive
CN1CCN(c2ccccc2/C=C2\SCCN(c3ccc(Cl)c(Cl)c3)C2=O)CC1	inactive
ClC1=C(Cl)C(Cl)(Cl)C(Cl)=C1Cl	inactive
c1ccc2cc3c(ccc4ccccc43)cc2c1	3.99 µM (active)
CCCCC(CC)COC(=O)CCCCC(=O)OCC(CC)CCCC (configuration not stated)	inactive
